pIC50: −log10 of the molar value.
System: HIF PHD2 (Homo sapiens, UniProt Q9GZT9) | Read-out: pIC50
Sequence (Q9GZT9 whole entry): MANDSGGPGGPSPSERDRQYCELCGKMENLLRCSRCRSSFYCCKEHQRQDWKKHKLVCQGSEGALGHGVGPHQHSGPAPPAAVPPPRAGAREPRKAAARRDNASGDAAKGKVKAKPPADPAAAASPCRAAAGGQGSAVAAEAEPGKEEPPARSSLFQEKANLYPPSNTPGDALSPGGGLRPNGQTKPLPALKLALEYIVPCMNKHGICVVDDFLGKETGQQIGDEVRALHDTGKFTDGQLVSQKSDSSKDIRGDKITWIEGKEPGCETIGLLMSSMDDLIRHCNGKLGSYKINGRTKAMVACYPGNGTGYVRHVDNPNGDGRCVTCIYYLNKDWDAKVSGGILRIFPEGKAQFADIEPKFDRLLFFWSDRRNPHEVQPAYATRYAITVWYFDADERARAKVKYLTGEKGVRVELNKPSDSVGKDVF
value_type: pIC50

compound | experimental_target | pIC50
Cn1ccc2cc(-c3ncc4c(O)c(C(=O)NCC(=O)O)c(=O)n(C)c4n3)ccc21 [Example 44] | HIF PHD2 (Homo sapiens, UniProt Q9GZT9) | 8.11
Cn1c(=O)c(C(=O)NCC(=O)O)c(O)c2cnc(-c3cccc(Cl)c3)nc21 [Example 43] | HIF PHD2 (Homo sapiens, UniProt Q9GZT9) | 8.10
Cn1c(=O)c(C(=O)NCC(=O)O)c(O)c2cnc(C(F)(F)F)nc21 [Example 14] | HIF PHD2 (Homo sapiens, UniProt Q9GZT9) | 8.16
CC1CCCCN1c1ncc2c(O)c(C(=O)NCC(=O)O)c(=O)n(C)c2n1 (centres unmarked) [Example 16] | HIF PHD2 (Homo sapiens, UniProt Q9GZT9) | 7.28
Cn1c(=O)c(C(=O)NCC(=O)O)c(O)c2cnc(-c3ccco3)nc21 [Example 38] | HIF PHD2 (Homo sapiens, UniProt Q9GZT9) | 8.60
Cn1c(=O)c(C(=O)NCC(=O)O)c(O)c2cnc(-c3cccnc3)nc21 [Example 55] | HIF PHD2 (Homo sapiens, UniProt Q9GZT9) | 8.35

a = Cn1c(=O)c(C(=O)NCC(=O)O)c(O)c2cnc(-c3cnc4ccccc4c3)nc21 [Example 49]
b = Cn1c(=O)c(C(=O)NCC(=O)O)c(O)c2cc(C3=CCCCC3)nnc21 [Example 6]
Q: Short answer wanted: higher pIC50, a or b ? The response must carry the label of the picked entry.
Ans: a

Hello, the source for this data is patent US8097620B2, in case you need it.
